Tested on: P. falciparum 3D7 (CQ-sensitive)
Assay: HRP2-based ELISA growth inhibition, 3D7 strain
Type: cell-based
Settings: Plasmodium falciparum, unmarked values: HRP II ELISA, 72 h
testReadout: pIC50
One number for each entry, as −log10 of the molar value.

The examples below pair each entry with its known result.
                                   compound  testreadout  resultvalue
0  O=C(NCc1ccccc1)c1ccccc1OCC(O)CNC1CCCCCCC1 (stereo not shown)        pIC50         6.71
1  O=C(NCc1ccccc1)c1ccccc1OCC(O)CN(C1CC1)C1C2CC3CC(C2)CC1C3 (stereo not shown)        pIC50         5.90
2  O=C(c1ccccc1)c1ccc(CNCC(O)COc2ccccc2C(=O)NCc2ccccc2)cc1 (stereo not shown)        pIC50         5.03
3  O=C(NCc1ccccc1)c1ccccc1OCC(O)CNC1C2CC3CC(C2)CC1C3 (stereo not shown)        pIC50         6.92
4  CCCN(CC(O)COc1ccccc1C(=O)NCc1ccccc1)C1C2CC3CC(C2)CC1C3 (stereo not shown)        pIC50         5.92
5  O=C(NCCc1ccccc1)c1ccccc1OCC(O)CNC1C2CC3CC(C2)CC1C3 (stereo not shown)        pIC50         6.58

Please give pIC50 for each item listed below.
1. O=C(NCc1ccccc1)c1ccccc1OCC(O)CNC12CC3CC(CC(C3)C1)C2 (stereo not shown)
2. Cc1ccc(NC(=O)c2ccccc2OCC(O)CNC(C)C23CC4CC(CC(C4)C2)C3)cc1 (stereo not shown)
3. CN(CC(O)COc1ccccc1C(=O)NCc1ccc(C(F)(F)F)cc1)C1C2CC3CC(C2)CC1C3 (stereo not shown)
4. O=C(NCc1ccccc1)c1ccccc1OCC(O)CNCC12CC3CC(CC(C3)C1)C2 (stereo not shown)
5. O=C(NCc1ccccc1)c1ccccc1OCC(O)CNCCC12CC3CC(CC(C3)C1)C2 (stereo not shown)
6. COc1ccc(CNC(=O)c2ccccc2OCC(O)CNC2C3CC4CC(C3)CC2C4)cc1 (stereo not shown)
7. O=C(NCc1ccccc1)c1ccccc1OCC(O)CN(CCCc1ccccc1)C1C2CC3CC(C2)CC1C3 (stereo not shown)
8. O=C(NCc1ccccc1)c1ccccc1OCC(O)CNCCCc1ccccc1 (stereo not shown)

1: 5.61; 2: 7.15; 3: 6.88; 4: 6.75; 5: 6.15; 6: 6.85; 7: 6.65; 8: 5.76

Please give pIC50 for each item listed below.
1. CCCN(CC(O)COc1ccccc1C(=O)NCc1ccccc1OC)C1C2CC3CC(C2)CC1C3 (stereo not shown)
2. O=C(NCc1ccccc1)c1ccccc1OCC(O)CN(CCc1ccccc1)C1C2CC3CC(C2)CC1C3 (stereo not shown)

1. 5.80
2. 6.43

* * *

Assign IC50 to each entry below.
Tested on: P. falciparum K1 (CQ-resistant)
Assay: [3H]-hypoxanthine incorporation assay, K1 strain
Assay type: cell-based
Conditions: Plasmodium falciparum, values marked with asterisk: [3H]-hypoxanthine assay, read-out: IC50 growth inhibition K1 (*)
Answers are plain numbers, in nM.

Please give IC50 for each item listed below.
1. CN(CC(O)COc1ccccc1C(=O)NCc1ccccc1)CC12CC3CC(CC(C3)C1)C2 (centres unmarked) [Compound I-36]
2. Cc1ccc(NC(=O)c2ccccc2OCC(O)CN2CCC(c3ccccc3)CC2)cc1 (centres unmarked) [Compound I-80]
3. O=C(Nc1ccccc1F)c1ccccc1OCC(O)CNCC12CC3CC(CC(C3)C1)C2 (centres unmarked) [Compound I-38]
4. CCCCNCC(O)COc1ccccc1C(=O)NCCC(C)C (centres unmarked) [Compound I-56]
5. O=C(Nc1cccc(C(F)(F)F)c1)c1cc(Cl)ccc1OCC(O)CN1CCN(C(c2ccccc2)c2ccccc2)CC1 (centres unmarked) [Compound I-85]
6. O=C(Nc1ccc(F)cc1)c1ccccc1OCC(O)CN1CCN(C(c2ccccc2)c2ccccc2)CC1 (centres unmarked) [Compound I-48]
7. CC12CC3CC(C)(C1)CC(NCC(O)COc1ccccc1C(=O)Nc1ccc(F)cc1)(C3)C2 (centres unmarked) [Compound I-4]

1. 182
2. 11
3. 8
4. 827
5. 1.2
6. 4
7. 8

Please give IC50 for each item listed below.
1. C#CCOc1ccc(OCC(O)CNCc2ccc(C3(C(F)(F)F)N=N3)cc2)c(C(=O)Nc2ccc(F)cc2)c1 (centres unmarked) [Compound I-45]
2. Cc1ccc(NC(=O)c2ccccc2OCC(O)CNCC23CC4CC(CC(C4)C2)C3)cc1 (centres unmarked) [Compound I-40]
3. O=C(Nc1cccc(C(F)(F)F)c1)c1ccccc1OCC(O)CN1CCC(c2ccccc2)CC1 (centres unmarked) [Compound I-67]

[542, 2, 2.2]

Please give IC50 for each item listed below.
1. O=C(Nc1cccc(C(F)(F)F)c1)c1ccccc1OCC(O)CNC12CC3CC(CC(O)(C3)C1)C2 (centres unmarked) [Compound I-70]
2. O=C(Nc1cccc(C(F)(F)F)c1)c1cc(Cl)ccc1OCC(O)CNCC12CC3CC(CC(C3)C1)C2 (centres unmarked) [Compound I-72]
3. O=C(NCCCc1ccccc1)c1ccccc1OCC(O)CNCC12CC3CC(CC(C3)C1)C2 (centres unmarked) [Compound I-32]

1. 921
2. 1
3. 52

* * *

Test system: P. falciparum K1 (CQ-resistant)
Experiment: [3H]-hypoxanthine incorporation assay, K1 strain
Type: cell-based
Details: Plasmodium falciparum, values marked with asterisk: [3H]-hypoxanthine assay, read-out: IC50 growth inhibition K1 (*)
testReadout: pIC50
Numbers only, as −log10 of the molar value.

                                   compound  resultvalue
0  O=C(Nc1ccccc1F)c1ccccc1OCC(O)CN1CCC(c2ccccc2)CC1 (stereo not drawn)         6.98
1  CCCCN(CCCC)CC(O)COc1ccccc1C(=O)NCCC(C)C (stereo not drawn)         7.12
2  O=C(Nc1ccc(F)cc1)c1ccccc1OCC(O)CNC12CC3CC(CC(C3)C1)C2 (stereo not drawn)         7.96
3  CC(C)CCNC(=O)c1ccccc1OCC(O)CNCC12CC3CC(CC(C3)C1)C2 (stereo not drawn)         7.44
4  O=C(NCCc1ccccc1)c1ccccc1OCC(O)CNCC12CC3CC(CC(C3)C1)C2 (stereo not drawn)         7.52

Please give pIC50 for each item listed below.
1. O=C(Nc1ccc(F)cc1)c1ccccc1OCC(O)CN1CCC(c2ccccc2)CC1 (stereo not drawn)
2. C=CCNCC(O)COc1ccccc1C(=O)Nc1ccccc1CC=C (stereo not drawn)
3. O=C(Nc1ccccc1F)c1ccccc1OCC(O)CN1CCC(Cc2ccccc2)CC1 (stereo not drawn)
4. CC(C)CCNCC(O)COc1ccccc1C(=O)NCCC(C)C (stereo not drawn)

[8.05, 6.31, 7.13, 6.33]

* * *

Test system: P. falciparum 3D7 (CQ-sensitive)
Assay: HRP2-based ELISA growth inhibition, 3D7 strain
Format: cell-based
Conditions: Plasmodium falciparum, unmarked values: HRP II ELISA, 72 h
Assign log10 IC50 to each entry below.
Please note: log10 values; quantity IC50; unit nM.

In [3]: df
Out[3]:
                                   compound  testreadout  resultvalue
0  O=C(NCCCc1ccccc1)c1ccccc1OCC(O)CNC1C2CC3CC(C2)CC1C3 (stereo not drawn)   log10 IC50         2.27
1  CCCCCN(CC(O)COc1ccccc1C(=O)NCc1ccccc1)C1C2CC3CC(C2)CC1C3 (stereo not drawn)   log10 IC50         2.18
2  COc1ccccc1CNC(=O)c1ccccc1OCC(O)CNC1C2CC3CC(C2)CC1C3 (stereo not drawn)   log10 IC50         2.30
3  C#CCOc1ccc(OCC(O)CNCc2ccc(C3(C(F)(F)F)N=N3)cc2)c(C(=O)NCCC(C)C)c1 (stereo not drawn)   log10 IC50         3.12
4  COc1ccccc1CNC(=O)c1ccccc1OCC(O)CNCC12CC3CC(CC(C3)C1)C2 (stereo not drawn)   log10 IC50         1.99

Please give log10 IC50 for each item listed below.
1. COc1ccccc1CN(CC(O)COc1ccccc1C(=O)NCc1ccccc1)C1C2CC3CC(C2)CC1C3 (stereo not drawn)
2. CN(CC(O)COc1ccccc1C(=O)NCc1ccccc1)C1C2CC3CC(C2)CC1C3 (stereo not drawn)
3. CCCNC(=O)c1ccccc1OCC(O)CNC1C2CC3CC(C2)CC1C3 (stereo not drawn)
4. CN(CC(O)COc1ccccc1C(=O)NCc1ccc(C(C)(C)C)cc1)C1C2CC3CC(C2)CC1C3 (stereo not drawn)

3.61
2.66
2.79
3.17

Please give log10 IC50 for each item listed below.
1. COc1ccc(CNC(=O)c2ccccc2OCC(O)CN2CCN(c3cccc(C)c3C)CC2)cc1 (stereo not drawn)
2. C#CCOc1cc(CN(CCC)CC(O)COc2ccccc2C(=O)NCc2ccccc2)ccc1OC (stereo not drawn)
3. O=C(NCc1ccccc1)c1ccccc1OCC(O)CNC1CCCCCCCCCCC1 (stereo not drawn)
4. CCCNCC(O)COc1ccccc1C(=O)Nc1ccc(C)cc1 (stereo not drawn)
5. COc1ccccc1CNC(=O)c1ccccc1OCC(O)CNC12CC3CC(CC(C3)C1)C2 (stereo not drawn)

3.31
3.98
2.75
2.44
2.83

Bench note: what log10 IC50 did CC(NCC(O)COc1ccccc1C(=O)NCc1ccccc1)C12CC3CC(CC(C3)C1)C2 (stereo not drawn) show?
2.49
